Biological target: Gal(b1-3)GalNAc(a1-3)[Fuc(a1-2)]Gal(b1-4)Glc
Experiment: glycan array binding signal (z-score within array); higher = stronger binding
Conditions: glycan notation: IUPAC condensed, linker removed
The entries come from a sample that favours the strongest signals as a whole.

| BINDER | glycan array binding signal (z-score) |
| --- | --- |
| Actd5 (Actinidia), P84527 (protein) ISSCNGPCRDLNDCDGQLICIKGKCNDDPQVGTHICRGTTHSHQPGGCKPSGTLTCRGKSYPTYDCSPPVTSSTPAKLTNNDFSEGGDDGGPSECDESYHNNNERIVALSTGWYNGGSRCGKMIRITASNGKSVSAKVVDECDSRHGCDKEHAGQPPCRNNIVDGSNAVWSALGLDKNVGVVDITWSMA | -0.318 |
| AAA (Anguilla anguilla), Q7SIC1 (protein) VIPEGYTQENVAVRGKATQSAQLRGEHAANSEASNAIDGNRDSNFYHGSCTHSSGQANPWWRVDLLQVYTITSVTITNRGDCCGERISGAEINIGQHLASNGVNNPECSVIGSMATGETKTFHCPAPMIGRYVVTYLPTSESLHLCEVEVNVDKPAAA | -0.279 |

All figures here come from the supplement of paper PMC8728848.
